pKi: −log10 of the molar value.
Literature compilation of pKi measurements on 5-hydroxytryptamine receptor 6 (Homo sapiens, UniProt P50406).

Examples from the recorded data:
{"CHEMICAL STRUCTURE": "O=S(=O)(c1ccc2c(c1)CNCC2)n1c(-c2ccccc2)cc2cc(F)ccc21", "TEST TARGET": "5-hydroxytryptamine receptor 6 (Homo sapiens, UniProt P50406)", "pKi": "8.20 to 8.90"}
{"CHEMICAL STRUCTURE": "CNCCOc1cccc2c(S(=O)(=O)c3ccccc3)nn(C)c12", "TEST TARGET": "5-hydroxytryptamine receptor 6 (Homo sapiens, UniProt P50406)", "pKi": "7.60 to 7.96"}
{"CHEMICAL STRUCTURE": "O=S(=O)(Nc1cccc(C2CNC2)c1)c1cc(Cl)sc1Cl", "TEST TARGET": "5-hydroxytryptamine receptor 6 (Homo sapiens, UniProt P50406)", "pKi": "8.00 to 9.00"}
{"CHEMICAL STRUCTURE": "CNCCCOc1cccc2c(S(=O)(=O)c3cccc4ccccc34)n[nH]c12", "TEST TARGET": "5-hydroxytryptamine receptor 6 (Homo sapiens, UniProt P50406)", "pKi": "7.60 to 7.96"}
{"CHEMICAL STRUCTURE": "NCCOc1cccc2c(S(=O)(=O)c3cccc4ccccc34)nn(Cc3cccc(Cl)c3)c12", "TEST TARGET": "5-hydroxytryptamine receptor 6 (Homo sapiens, UniProt P50406)", "pKi": "7.46 to 7.59"}

Which pKi value is on record for O=S(=O)(c1cccc2ccccc12)c1n[nH]c2ccc(OCCCN3CCOCC3)cc12 ?
8.00 to 11.00

Now try NCCOc1cc(F)cc2c(S(=O)(=O)c3cccc4ccccc34)nn(Cc3cccc(Cl)c3)c12 .
< 7.35
